Source listed as patent US12421269B2.

- study system: UniProtKB P31639
- Sequence (P31639 whole entry): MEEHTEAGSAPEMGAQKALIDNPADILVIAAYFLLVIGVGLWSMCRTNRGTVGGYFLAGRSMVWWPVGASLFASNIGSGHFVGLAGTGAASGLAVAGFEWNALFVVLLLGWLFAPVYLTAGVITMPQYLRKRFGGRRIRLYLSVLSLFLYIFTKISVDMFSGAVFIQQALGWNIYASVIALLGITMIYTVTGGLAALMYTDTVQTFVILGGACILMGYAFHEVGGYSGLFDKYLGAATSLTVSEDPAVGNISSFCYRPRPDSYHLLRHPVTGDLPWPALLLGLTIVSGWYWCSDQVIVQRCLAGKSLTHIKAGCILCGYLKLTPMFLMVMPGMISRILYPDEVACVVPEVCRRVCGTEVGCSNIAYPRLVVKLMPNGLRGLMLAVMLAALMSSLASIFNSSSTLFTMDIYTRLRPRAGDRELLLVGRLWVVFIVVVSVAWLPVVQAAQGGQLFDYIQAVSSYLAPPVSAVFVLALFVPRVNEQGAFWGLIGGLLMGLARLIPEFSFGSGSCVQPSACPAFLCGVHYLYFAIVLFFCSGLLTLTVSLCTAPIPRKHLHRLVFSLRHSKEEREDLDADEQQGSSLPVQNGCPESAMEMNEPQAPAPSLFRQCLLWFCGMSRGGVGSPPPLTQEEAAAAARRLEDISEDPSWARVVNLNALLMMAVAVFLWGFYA
- assay name: SGLT2 glucose transport assay ([14C]-labeled glucose uptake)
- assay setup: cells stably expressing Human-SGLT2, 37° C., 2 hours

compound smiles | output unit | IC50
CS[C@H]1O[C@@H](c2cc(Cc3ccc(O[C@@H]4CCN([C@H]5CO[C@H](c6cc(F)ccc6F)[C@@H](N)C5)C4)cc3)c(F)cc2C)[C@H](O)[C@@H](O)[C@@H]1O | nM | 7.39
CS[C@H]1O[C@@H](c2cc(Cc3ccc(O[C@@H]4CCN([C@H]5CO[C@H](c6cc(F)ccc6F)[C@@H](N)C5)C4)cc3)c(F)cc2F)[C@H](O)[C@@H](O)[C@@H]1O | nM | 7.02
CS[C@H]1O[C@@H](c2ccc(F)c(Cc3ccc(O[C@@H]4CCN([C@H]5CO[C@H](c6cc(F)ccc6F)[C@@H](N)C5)C4)cc3)c2)[C@H](O)[C@@H](O)[C@@H]1O | nM | 21.8
CS[C@H]1O[C@@H](c2cc(Cc3ccc(O[C@@H]4CCN([C@H]5CO[C@H](c6cc(F)ccc6F)[C@@H](N)C5)C4)cc3)c(Cl)cc2C)[C@H](O)[C@@H](O)[C@@H]1O | nM | 4.84
COc1cc(F)c(Cc2ccc(O[C@@H]3CCN([C@H]4CO[C@H](c5cc(F)ccc5F)[C@@H](N)C4)C3)cc2)cc1[C@@H]1O[C@H](SC)[C@@H](O)[C@H](O)[C@H]1O | nM | 19.7
